Source: ChEMBL document CHEMBL1772977

assay: Displacement of [3H]ditolylguanidine from sigma 2 receptor in rat liver membrane by competitive binding assay; assay type: cell membranes
pKi: −log10 of the molar value.
observed-property: pKi

1) Ic1ccc(CN2CCN(Cc3ccc4c(c3)OCO4)CC2)cc1 | 7.21
2) Cc1ccc(CN2CCN(Cc3ccc4c(c3)OCO4)CC2)cc1 | 7.30
3) Fc1ccc(CN2CCN(Cc3ccc4c(c3)OCO4)CC2)cc1 | 7.28
4) Brc1ccc(CN2CCN(Cc3ccc4c(c3)OCO4)CC2)cc1 | 7.39
5) O=[N+]([O-])c1ccc(CN2CCN(Cc3ccc4c(c3)OCO4)CC2)cc1 | 7.39

----------
experiment: 1-Octanol-sodium phosphate buffer distribution coefficient, log D of the compound at pH 7.4; assay type: physicochemical
observed-property: logD

1. [125I]c1ccc(CN2CCN(Cc3ccc4c(c3)OCO4)CC2)cc1 | 2.98
